These data points were gathered from patent US20250215030A1.

- tested system: Recombinant STAT3 protein (STAT3(G127-I722)) (Homo sapiens, UniProt P40763)
- Construct: STAT3(G127-I722)
- Sequence (P40763 127-722, species assumed): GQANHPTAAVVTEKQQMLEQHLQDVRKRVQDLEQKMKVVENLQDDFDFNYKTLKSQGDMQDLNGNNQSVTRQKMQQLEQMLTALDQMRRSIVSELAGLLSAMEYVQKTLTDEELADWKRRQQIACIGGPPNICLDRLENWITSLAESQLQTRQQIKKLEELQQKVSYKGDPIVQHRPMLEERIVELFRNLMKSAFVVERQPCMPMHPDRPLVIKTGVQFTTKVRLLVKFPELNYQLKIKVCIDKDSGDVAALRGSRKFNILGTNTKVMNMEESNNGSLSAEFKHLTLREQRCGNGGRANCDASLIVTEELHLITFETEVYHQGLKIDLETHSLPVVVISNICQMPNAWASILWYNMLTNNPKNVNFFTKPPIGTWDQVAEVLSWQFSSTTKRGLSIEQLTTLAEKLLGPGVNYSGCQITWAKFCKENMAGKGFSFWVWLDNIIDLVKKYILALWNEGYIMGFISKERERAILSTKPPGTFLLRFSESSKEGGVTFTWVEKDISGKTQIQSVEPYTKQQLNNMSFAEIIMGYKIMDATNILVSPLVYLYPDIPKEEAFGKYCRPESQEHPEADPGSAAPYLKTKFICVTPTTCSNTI
- test method notes: STAT3 Fluorescence Polarization (FP) Assay
- stated conditions: STAT3(G127-I722) 25 nM, probe 5-FAM-GpYLPQTV-NH2 2 nM, 45-minute incubation
assay endpoint: IC50

[
  {
    "molecule": "O=C(N[C@H]1C[C@H]2C[C@H]2C[C@H]2CC[C@@H](C(=O)NCC(CO)c3cccnc3)N2C1=O)c1cc2cc(C(F)(F)P(=O)(O)O)ccc2s1 (some centres unmarked) [Compound 123]",
    "reported result": "100 to 1000 nM"
  },
  {
    "molecule": "Cc1nnc(C2CN(C(=O)[C@@H]3CC[C@@H]4C[C@H]5C[C@H]5C[C@H](NC(=O)c5cc6cc(C(F)P(=O)(O)O)ccc6s5)C(=O)N43)C2)o1 (some centres unmarked) [Example 327]",
    "reported result": "100 to 1000 nM"
  },
  {
    "molecule": "O=C(N[C@H]1C[C@@H]2C[C@@H]2C[C@H]2CC[C@@H](C(=O)N[C@@H]3CCN(C4COC4)C3)N2C1=O)c1cc2cc(C(F)(F)P(=O)(O)O)ccc2s1 [Compound 48]",
    "reported result": "100 to 1000 nM"
  },
  {
    "molecule": "COc1ccc(C2CCN(C(=O)[C@@H]3CC[C@@H]4C[C@H]5C[C@H]5C[C@H](NC(=O)c5cc6cc(C(F)(F)P(=O)(O)O)ccc6s5)C(=O)N43)C2)cn1 (some centres unmarked) [Compound 88]",
    "reported result": "< 100 nM"
  },
  {
    "molecule": "O=C(N[C@H]1C[C@@H]2C[C@@H]2[C@H]2CC[C@@H](C(=O)N3CC(c4cccnc4)C3)N2C1=O)c1cc2cc(C(F)(F)P(=O)(O)O)ccc2s1 [Compound 67]",
    "reported result": "< 100 nM"
  }
]

* * *

- tested system: Recombinant STAT6 protein (STAT6(W123-T658)) (Homo sapiens, UniProt P42226)
- Construct: STAT6(W123-T658)
- Sequence (P42226 123-658): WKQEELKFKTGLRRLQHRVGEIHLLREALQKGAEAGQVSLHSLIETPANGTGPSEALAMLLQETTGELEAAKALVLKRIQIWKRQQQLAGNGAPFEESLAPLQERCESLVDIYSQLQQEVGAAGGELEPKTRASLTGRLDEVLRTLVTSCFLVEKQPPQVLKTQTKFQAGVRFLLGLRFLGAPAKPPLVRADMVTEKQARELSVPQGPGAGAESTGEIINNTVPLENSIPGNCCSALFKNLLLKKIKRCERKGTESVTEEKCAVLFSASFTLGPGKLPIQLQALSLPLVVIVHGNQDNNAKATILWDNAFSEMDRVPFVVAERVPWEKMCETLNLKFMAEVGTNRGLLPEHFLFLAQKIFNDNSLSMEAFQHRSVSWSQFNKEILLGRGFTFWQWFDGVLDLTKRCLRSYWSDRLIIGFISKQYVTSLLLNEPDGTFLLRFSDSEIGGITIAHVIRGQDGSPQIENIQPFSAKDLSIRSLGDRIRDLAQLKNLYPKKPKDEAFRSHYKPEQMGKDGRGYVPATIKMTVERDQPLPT
- test method notes: STAT6 Fluorescence Polarization (FP) Assay
- stated conditions: STAT6(W123-T658) 250 nM, probe 5-FAM-ApYKPFQDLI-NH2 2 nM, 45-minute incubation
pIC50: −log10 of the molar value.
assay endpoint: pIC50

[
  {
    "compound": "CCc1ccncc1C1CN(C(=O)[C@@H]2CC[C@@H]3C[C@@H]4C[C@@H]4C[C@H](NC(=O)c4cc5cc(CP(=O)(O)O)ccc5s4)C(=O)N32)C1 [Example 343]",
    "reported result": "< 4.52"
  },
  {
    "compound": "O=C(N[C@H]1C[C@@H]2C[C@@H]2C[C@H]2CC[C@@H](C(=O)N[C@@H]3CCN(C4CCOCC4)C3)N2C1=O)c1cc2cc(C(F)(F)P(=O)(O)O)ccc2s1 [Compound 119]",
    "reported result": "4.52 to 5.52"
  },
  {
    "compound": "Cc1nnc(C2(C)CN(C(=O)[C@@H]3CC[C@@H]4C[C@@H]5C[C@@H]5C[C@H](NC(=O)c5cc6cc(C(F)(F)P(=O)(O)O)ccc6s5)C(=O)N43)C2)o1 [Compound 82]",
    "reported result": "5.52 to 6.52"
  },
  {
    "compound": "CC(C)(CNC(=O)[C@@H]1CC[C@@H]2C[C@@H]3C[C@@H]3C[C@H](NC(=O)c3cc4cc(C(F)(F)P(=O)(O)O)ccc4s3)C(=O)N21)c1cccnc1 [Compound 122]",
    "reported result": "4.52 to 5.52"
  },
  {
    "compound": "CS(=O)(=O)CC1CN(C(=O)[C@@H]2CC[C@@H]3C[C@@H]4C[C@@H]4C[C@H](NC(=O)c4cc5cc(C(F)(F)P(=O)(O)O)ccc5s4)C(=O)N32)C1 [Compound 69]",
    "reported result": "4.52 to 5.52"
  },
  {
    "compound": "O=C(N[C@H]1C[C@H]2C[C@H]2C[C@H]2CC[C@@H](C(=O)N3CC(C(=O)N4CCOCC4)C3)N2C1=O)c1cc2cc(C(F)(F)P(=O)(O)O)ccc2s1 [Compound 71]",
    "reported result": "4.52 to 5.52"
  },
  {
    "compound": "O=C(N[C@H]1C[C@@H]2C[C@@H]2C[C@H]2CC[C@@H](C(=O)N3C[C@H]4[C@@H]3CCN4c3cccnc3)N2C1=O)c1cc2cc(C(F)P(=O)(O)O)ccc2s1 (some centres unmarked) [Example 295]",
    "reported result": "5.52 to 6.52"
  },
  {
    "compound": "O=C(N[C@H]1C[C@@H]2C[C@@H]2C[C@H]2CC[C@@H](C(=O)N3CC(N4CCOCC4)C3)N2C1=O)c1cc2cc(C(F)(F)P(=O)(O)O)ccc2s1 [Compound 91]",
    "reported result": "4.52 to 5.52"
  },
  {
    "compound": "Cn1cc(OC2CN(C(=O)[C@@H]3CC[C@@H]4C[C@H]5C[C@H]5C[C@H](NC(=O)c5cc6cc(CP(=O)(O)O)ccc6s5)C(=O)N43)C2)cn1 [Example 335]",
    "reported result": "< 4.52"
  },
  {
    "compound": "O=C(N[C@H]1C[C@@H]2C[C@@H]2C[C@H]2CC[C@@H](C(=O)N3CCC34CCCC4)N2C1=O)c1cc2cc(C(F)P(=O)(O)O)ccc2s1 (some centres unmarked) [Example 389]",
    "reported result": "4.52 to 5.52"
  },
  {
    "compound": "COc1ccncc1C1CN(C(=O)[C@@H]2CC[C@@H]3C[C@@H]4C[C@@H]4C[C@H](NC(=O)c4cc5cc(C(F)P(=O)(O)O)ccc5s4)C(=O)N32)C1 (some centres unmarked) [Example 318]",
    "reported result": "4.52 to 5.52"
  }
]

* * *

- tested system: pSTAT3 (pY705-STAT3) (Homo sapiens, UniProt P40763)
- Construct: host or cells: cryopreserved PBMC
- Sequence (P40763 whole entry): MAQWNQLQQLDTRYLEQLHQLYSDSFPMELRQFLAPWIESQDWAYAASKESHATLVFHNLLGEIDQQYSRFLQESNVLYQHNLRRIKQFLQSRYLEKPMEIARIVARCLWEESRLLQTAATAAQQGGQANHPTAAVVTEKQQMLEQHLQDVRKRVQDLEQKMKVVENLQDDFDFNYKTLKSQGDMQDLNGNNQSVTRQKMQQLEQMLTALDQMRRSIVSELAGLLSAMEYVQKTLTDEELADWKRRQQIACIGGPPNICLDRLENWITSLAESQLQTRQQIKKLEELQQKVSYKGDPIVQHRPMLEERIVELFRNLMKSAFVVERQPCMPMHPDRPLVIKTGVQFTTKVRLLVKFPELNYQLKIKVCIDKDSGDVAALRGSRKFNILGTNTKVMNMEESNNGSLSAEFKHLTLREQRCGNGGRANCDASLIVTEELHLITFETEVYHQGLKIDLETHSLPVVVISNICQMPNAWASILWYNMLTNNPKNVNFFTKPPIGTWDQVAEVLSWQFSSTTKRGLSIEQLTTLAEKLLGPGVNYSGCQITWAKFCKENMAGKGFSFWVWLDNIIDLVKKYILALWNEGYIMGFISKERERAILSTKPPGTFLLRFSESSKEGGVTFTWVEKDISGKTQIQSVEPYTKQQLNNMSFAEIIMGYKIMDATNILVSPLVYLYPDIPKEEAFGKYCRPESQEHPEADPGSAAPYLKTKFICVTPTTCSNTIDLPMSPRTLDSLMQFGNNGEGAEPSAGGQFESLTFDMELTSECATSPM
- test method notes: MSD-pSTAT-PBMC Assay (pSTAT3, IL-6 stimulated)
- Format: cell-based
- stated conditions: PBMC, compound 3 hrs, then 10 ng/mL IL-6 for 10 min; MSD pY705-STAT3; read-out: pSTAT3
pIC50: −log10 of the molar value.
Listed below: pIC50 values for each entry.
assay endpoint: pIC50

[
  {
    "compound": "CCOC(=O)CCCOP(=O)(OCCCC(=O)OCC)C(F)(F)c1ccc2sc(C(=O)N[C@H]3C[C@@H]4C[C@@H]4C[C@H]4CC[C@@H](C(=O)N5CC(C(=O)N6CCOCC6)C5)N4C3=O)cc2c1 [Compound 177]",
    "assay endpoint": "pIC50",
    "reported result": "< 5.52"
  },
  {
    "compound": "CCCOC(=O)[C@H](C)N[P@@](=O)(Oc1ccccc1)[C@H](F)c1ccc2sc(C(=O)N[C@H]3C[C@H]4C[C@H]4C[C@H]4CC[C@@H](C(=O)N5CC(c6cnccc6N(C)C)C5)N4C3=O)cc2c1 [Compound 398]",
    "assay endpoint": "pIC50",
    "reported result": "> 7.00"
  },
  {
    "compound": "CCCOC(=O)[C@H](C)N[P@](=O)(Oc1ccccc1)[C@@H](F)c1ccc2sc(C(=O)N[C@H]3C[C@@H]4C[C@@H]4C[C@H]4CC[C@@H](C(=O)N5C[C@H](c6cccnc6)[C@@H](C#N)C56CC6)N4C3=O)cc2c1 (single isomer, unassigned) [Compound 430]",
    "assay endpoint": "pIC50",
    "reported result": "< 5.52"
  },
  {
    "compound": "CC(C)(C)C(=O)OCOP(=O)(OCOC(=O)C(C)(C)C)C(F)(F)c1ccc2sc(C(=O)N[C@H]3C[C@H]4C[C@H]4C[C@H]4CC[C@@H](C(=O)N5CC(c6cccnc6)C5)N4C3=O)cc2c1 [Compound 187]",
    "assay endpoint": "pIC50",
    "reported result": "> 7.00"
  }
]
